Hello, the source for this data is the supplement of paper PMC9732359, in case you need it.

- Procedure text: protein stability index of a GFP-peptide fusion (yeast GPS) (PSI 1-4); higher = more stable; sorted into four equal gates, so the index is relative within each strain
- Condition context: ubr1∆
Classify as follows. Reported protein stability index greater than or equal to 3: fulfilled. Reported protein stability index below: not fulfilled.

Before answering, review these 5 worked examples.
[[record]]
seq = "FIYDTEKNGGLGWDLDA [FAS2]"
assigned_class = "not fulfilled"

[[record]]
seq = "DDSRNPDCKIKIAHGTT [PRE2]"
assigned_class = "not fulfilled"

[[record]]
seq = "VKTSPDAKKCIAACTGV [FAS1]"
assigned_class = "not fulfilled"

[[record]]
seq = "SKNAERKWAARAASAKI [RPS8A]"
assigned_class = "fulfilled"

[[record]]
seq = "TSDNLLTITKAAGANVD [RPP1B]"
assigned_class = "not fulfilled"


Please look at the following sequence next.
Can TAKETKMLMNLHKEQWQ [RPN11] be said to have protein stability index at or above 3? fulfilled
